# Tested on: MDA-MB-157
# ASSAY: cells
# Format: functional, cell-based
# MEASUREMENT_CONDITIONS: Homo sapiens
# Description: SANGER: Inhibition of human MDA-MB-157 cell growth in a cell viability assay.
PARAMETER_MEASURED: IC50

| MOLECULE | MEASUREMENT |
| --- | --- |
| OC[C@H](Cc1ccccc1)Nc1nc(Oc2ccc3c(c2)CCC3)nc2c1ncn2Cc1ccc(-c2ccccc2)cc1 | > 10.2 µM |
| CS(=O)(=O)N1CCN(Cc2cc3nc(-c4cccc5[nH]ncc45)nc(N4CCOCC4)c3s2)CC1 | 2.82 µM |
| NC(=O)Nc1cc(-c2cccc(F)c2)sc1C(=O)N[C@H]1CCCNC1 | 0.0866 µM |
| Cc1ccc(C(=O)Nc2ccc(CN3CCN(C)CC3)c(C(F)(F)F)c2)cc1C#Cc1cnc2cccnn12 | > 0.512 µM |
| O=C(NCCCNc1nc(Nc2cccc(NC(=O)N3CCCC3)c2)ncc1I)c1cccs1 | 1.72 µM |
| O=S(=O)(O)c1ccc2cc(/N=N/c3cc(S(=O)(=O)O)c4cccnc4c3O)ccc2c1 | > 16 µM |
| NC1(c2ccc(-c3nc4ccn5c(=O)[nH]nc5c4cc3-c3ccccc3)cc2)CCC1 | > 4 µM |
| NC(=O)c1ccc(N(C(N)=O)c2c(F)cccc2F)nc1-c1ccc(F)cc1F | > 2 µM |

====

# System: RPMI-6666
# ASSAY: cells
# Type: functional, cell-based, Homo sapiens
# MEASUREMENT_CONDITIONS: Homo sapiens, RPMI-6666
# Description: SANGER: Inhibition of human RPMI-6666 cell growth in a cell viability assay.
PARAMETER_MEASURED: IC50

| COMPOUND | MEASUREMENT |
| --- | --- |
| Nc1ccccc1NC(=O)c1ccc(CNC(=O)OCc2cccnc2)cc1 [ENTINOSTAT] | 411 nM |
| C=CC(=O)N1CCCC(Nc2nc(Nc3ccc(N(C)C(=O)CC)cc3)nc3[nH]cnc23)C1 (stereo not drawn) | > 10200 nM |
| COc1ccc(N(C(=O)Oc2c(C)cccc2C)c2ccnc(Nc3ccc(N4CCN(C)CC4)cc3)n2)c(OC)c1 | > 5120 nM |
| COc1cc(N2CCC(N3CCN(C)CC3)CC2)ccc1Nc1ncc(Cl)c(Nc2ccccc2S(=O)(=O)C(C)C)n1 [TAE-684] | > 2000 nM |
| Cc1ccc(NC(=O)c2ccc(CN3CCN(C)CC3)cc2)cc1Nc1nccc(-c2cccnc2)n1 [IMATINIB] | > 2000 nM |
| O=S(=O)(O)c1ccc2cc(/N=N/c3cc(S(=O)(=O)O)c4cccnc4c3O)ccc2c1 | > 16000 nM |
| C/C(=C\c1csc(C)n1)[C@@H]1C[C@@H]2O[C@]2(C)CCC[C@H](C)[C@H](O)[C@@H](C)C(=O)C(C)(C)[C@@H](O)CC(=O)O1 [PATUPILONE] | 1.5 nM |
| COC(=O)[C@H](CCSC)NC(=O)c1ccc(NC[C@@H](N)CS)cc1-c1ccccc1 | > 1020 nM |

====

# System: SF-539;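 also: Read-out is a cell viability assay, with IC50 reflecting inhibition of cell growth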
# ASSAY: cells
# Assay type: functional, cell-based, Homo sapiens
# MEASUREMENT_CONDITIONS: Homo sapiens, SF-539
# Description: SANGER: Inhibition of human SF539 cell growth in a cell viability assay.
pIC50: −log10 of the molar value.

| MOLECULE | LT_GT_EQ | pIC50 |
| --- | --- | --- |
| COC(=O)[C@H](CCSC)NC(=O)c1ccc(NC[C@@H](N)CS)cc1-c1ccccc1 | < | 5.99 |
| NC1(c2ccc(-c3nc4ccn5c(=O)[nH]nc5c4cc3-c3ccccc3)cc2)CCC1 | < | 5.40 |
| C[C@@H](Oc1cc(-c2cnn(C3CCNCC3)c2)cnc1N)c1c(Cl)ccc(F)c1Cl | = | 6.69 |
| COc1cc(N2CCC(N3CCN(C)CC3)CC2)ccc1Nc1ncc(Cl)c(Nc2ccccc2S(=O)(=O)C(C)C)n1 | > | 8.11 |
| O=C(NCCCNc1nc(Nc2cccc(NC(=O)N3CCCC3)c2)ncc1I)c1cccs1 | = | 5.43 |
| Nc1ccccc1NC(=O)c1ccc(CNC(=O)OCc2cccnc2)cc1 | = | 6.71 |
| CC1=C(/C=C/C(C)=C/C=C/C(C)=C/C(=O)O)C(C)(C)CCC1 | < | 5.00 |
